The measurements presented in this section are drawn from patent US8476256B2.

# System: MiaPaca (pancreatic cancer) cells
# Assay Method Text: MiaPaca xenograft model, tumor free animals
# Type: in vivo, Athymic nude mice
# Condition Label: 20 mg/kg, tail vein injection, 6 injections (days 9, 11, 14, 16, 18, 21); at 35 days post tumor cell injection; 7 mice/group
Listed next: entries and their corresponding Tumor-free animals out of 7.
Measured Property: Tumor-free animals out of 7

| Compound | Result |
| --- | --- |
| CCC(O)(CC)C(=O)N[C@H]1Cc2ccc3c(c2)C24C5=C(N=C(O5)[C@H](C(C)C)NC1=O)c1ncc(o1)-c1c[nH]c5cccc(c15)-c1cccc2c1NC4O3 (stereo in doubt) | 7 of 7 |
| CC(C)[C@@H]1NC(=O)C(NC(=O)[C@H]2CCOC2)Cc2ccc3c(c2)[C@]24C5=C(N=C1O5)c1ncc(o1)-c1c[nH]c5cccc(c15)-c1cccc2c1NC4O3 (stereo partly shown) | 1/7 (35) |
| CCC(C)(O)C(=O)NC1Cc2ccc3c(c2)[C@]24C5=C(N=C(O5)[C@H](C(C)C)NC1=O)c1ncc(o1)-c1c[nH]c5cccc(c15)-c1cccc2c1NC4O3 (stereo partly shown) | 0/7 (35) |
| CC(C)[C@H](O)C(=O)N[C@H]1Cc2ccc3c(c2)[C@]24C5=C(N=C(O5)[C@H](C(C)C)NC1=O)c1ncc(o1)-c1c[nH]c5cccc(c15)-c1cccc2c1NC4O3 (stereo partly shown) [Example 16, reference compound] | 0/7 (35) |
